- tgt: human serotonin 5-HT2A receptor (Homo sapiens)
- Construct: expressed in transfected cells; host or cells: HEK-293 EBNA cells, transient transfection; membrane preparation
- Sequence (P28223 whole entry): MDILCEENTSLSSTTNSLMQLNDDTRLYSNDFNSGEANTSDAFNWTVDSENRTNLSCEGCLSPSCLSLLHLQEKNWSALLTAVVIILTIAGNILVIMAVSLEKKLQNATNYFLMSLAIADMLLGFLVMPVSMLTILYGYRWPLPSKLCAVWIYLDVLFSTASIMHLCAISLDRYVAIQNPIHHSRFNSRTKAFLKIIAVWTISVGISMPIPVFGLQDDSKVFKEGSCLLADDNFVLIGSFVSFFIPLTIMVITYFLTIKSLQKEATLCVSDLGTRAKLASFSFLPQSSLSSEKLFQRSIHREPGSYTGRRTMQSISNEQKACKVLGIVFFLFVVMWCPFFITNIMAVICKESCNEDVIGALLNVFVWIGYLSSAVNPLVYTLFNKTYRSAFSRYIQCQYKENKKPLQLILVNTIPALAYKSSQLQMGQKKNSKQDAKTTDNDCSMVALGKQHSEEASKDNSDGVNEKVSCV
- assay.info: Radioligand binding ([3H]-ketanserin) to membranes of HEK-293 EBNA cells expressing human 5-HT2A receptor
- study.conditions: 1.1 nM [3H]-ketanserin, HEK-293 EBNA membranes, 1 h at RT
pKi: −log10 of the molar value.
Tick true if pKi is 8 or greater. Tick false if pKi is less than 8.

>  <smiles.entry>
COCCC(=O)N[C@H]1CC[C@H](CCN2CCN(c3noc4ccc(C)cc34)CC2)CC1

>  <cat>
false

$$$$
>  <smiles.entry>
Cc1cc(CC(=O)N[C@H]2CC[C@H](CCN3CCN(c4noc5cc(F)c(Cl)cc45)CC3)CC2)on1

>  <cat>
true

$$$$
>  <smiles.entry>
O=C(C[C@H]1C[C@H](CO)C1)N[C@H]1CC[C@H](CCN2CCN(c3noc4ccc(F)cc34)CC2)CC1

>  <cat>
false

$$$$
>  <smiles.entry>
CC(=O)N[C@H]1CC[C@H](CCN2CCN(c3noc4ccccc34)CC2)CC1

>  <cat>
true

$$$$
>  <smiles.entry>
CC(=O)N[C@H]1CC[C@H](CCN2CCN(c3noc4cc(F)c(C)cc34)CC2)CC1

>  <cat>
false

$$$$
